# ASSAY_METHOD_TEXT: photophysical properties
# Type: physicochemical
# ASSAY_SETUP: MeOH, 20 μM sample
MEASURED_ATTRIBUTE: λmax (nm)
All answers are understood in nm, so give the number only.

SAMPLE_SMILES	λmax (nm)
F[B-]1(F)N2C=C(Cl)C=CC2=N[N+]1=Cc1ccc(-c2cccs2)cc1	491
CC(C)=[N+]1N=C2C=CC(I)=CN2[B-]1(F)F	400
F[B-]1(F)N2C=C(Br)C=CC2=N[N+]1=Cc1ccccc1	471

input: So what does the record say about λmax for F[B-]1(F)N2C=C(n3cc(-c4ccccc4)nn3)C=CC2=N[N+]1=Cc1ccc(-c2cccs2)cc1 ?
output: 491

input: So what does the record say about λmax for CO[B-]1(OC)N2C=C(I)C=CC2=N[N+]1=C(C)C ?
output: 400

input: So what does the record say about λmax for CC(C)=[N+]1N=C2C=CC(Br)=CN2[B-]1(F)F ?
output: 403

input: So what does the record say about λmax for C#CC1=CN2C(=N[N+](=Cc3ccc(-c4cccs4)cc3)[B-]2(F)F)C=C1 ?
output: 481

input: So what does the record say about λmax for F[B-]1(F)N2C=CC=CC2=N[N+]1=Cc1ccc(-c2cccs2)cc1 ?
output: 472

input: So what does the record say about λmax for F[B-]1(F)N2C=C(Br)C=CC2=N[N+]1=Cc1ccc(-c2cccs2)cc1 ?
output: 482

input: So what does the record say about λmax for CO[B-]1(OC)N2C=C(Br)C=CC2=N[N+]1=C(C)C ?
output: 403

---

# ASSAY_METHOD_TEXT: photophysical properties
# Format: physicochemical
# ASSAY_SETUP: MeOH, 20 μM sample
MEASURED_ATTRIBUTE: ε

input: So what does the record say about ε for C#CC1=CN2C(=N[N+](=Cc3ccc(-c4cccs4)cc3)[B-]2(F)F)C=C1 ?
output: 36 700 M^−1cm^−1

input: So what does the record say about ε for CO[B-]1(OC)N2C=C(I)C=CC2=N[N+]1=C(C)C ?
output: 9 400 M^−1cm^−1

input: So what does the record say about ε for F[B-]1(F)N2C=C(Br)C=CC2=N[N+]1=Cc1ccc(-c2cccs2)cc1 ?
output: 32 900 M^−1cm^−1

input: So what does the record say about ε for F[B-]1(F)N2C=C(Cl)C=CC2=N[N+]1=Cc1ccc(-c2cccs2)cc1 ?
output: 26 800 M^−1cm^−1

---

Readings of Φf for the listed compounds
# ASSAY_METHOD_TEXT: photophysical properties
# Format: physicochemical
# ASSAY_SETUP: MeOH, 20 μM sample
Just the number.

input: So what does the record say about Φf for F[B-]1(F)N2C=C(n3cc(-c4ccccc4)nn3)C=CC2=N[N+]1=Cc1ccc(-c2cccs2)cc1 [Compound 12] ?
output: 0.37

input: So what does the record say about Φf for CC(C)=[N+]1N=C2C=CC(Br)=CN2[B-]1(F)F [Compound 16] ?
output: 0.21

input: So what does the record say about Φf for F[B-]1(F)N2C=C(Br)C=CC2=N[N+]1=Cc1ccc(-c2cccs2)cc1 [Compound 6] ?
output: 0.95

input: So what does the record say about Φf for F[B-]1(F)N2C=C(Cl)C=CC2=N[N+]1=Cc1ccc(-c2cccs2)cc1 [Compound 4] ?
output: 0.69

input: So what does the record say about Φf for C#CC1=CN2C(=N[N+](=Cc3ccc(-c4cccs4)cc3)[B-]2(F)F)C=C1 [Compound 14] ?
output: 0.38
